reported-endpoint: melting point

Measured melting point, CN(C)CCCOc1ccc(C(CCN(C)C)Oc2cccc3c2OCO3)cc1.O=C(O)C(=O)O (stereo not drawn) [Compound 11l] : 121 to 122 °C

Measured melting point, CCN1CCN(CCCOc2ccc(C(CCN(C)C)Oc3cccc4c3OCO4)cc2)CC1.O=C(O)C(=O)O (stereo not drawn) [Compound 11e] : 187 to 189 °C

Measured melting point, CN(C)CCC(Oc1cccc2c1OCO2)c1ccc(OCCCCN2CCCCC2)cc1.O=C(O)C(=O)O (stereo not drawn) [Compound 11o] : 169 to 171 °C

Measured melting point, CN(C)CCC(Oc1cccc2c1OCO2)c1ccc(OCCCN2CCC(C#N)CC2)cc1.O=C(O)C(=O)O (stereo not drawn) [Compound 11v] : 148 to 151 °C

Measured melting point, CN(C)CCC(Oc1cccc2c1OCO2)c1cccc(OCCCN2CCCCC2)c1.O=C(O)C(=O)O (stereo not drawn) [Compound 11i] : 81 to 83 °C

Measured melting point, CN(C)CCC(Oc1cccc2c1OCO2)c1cccc(OCCCN2CCOCC2)c1.O=C(O)C(=O)O (stereo not drawn) [Compound 11j] : 95 to 98 °C

---

Target: M2 muscarinic receptor (Homo sapiens)
Construct: blood lymphocytes were used at a concentration of 1 × 10⁶ cells; endogenous in cells
Sequence (P08172 whole entry): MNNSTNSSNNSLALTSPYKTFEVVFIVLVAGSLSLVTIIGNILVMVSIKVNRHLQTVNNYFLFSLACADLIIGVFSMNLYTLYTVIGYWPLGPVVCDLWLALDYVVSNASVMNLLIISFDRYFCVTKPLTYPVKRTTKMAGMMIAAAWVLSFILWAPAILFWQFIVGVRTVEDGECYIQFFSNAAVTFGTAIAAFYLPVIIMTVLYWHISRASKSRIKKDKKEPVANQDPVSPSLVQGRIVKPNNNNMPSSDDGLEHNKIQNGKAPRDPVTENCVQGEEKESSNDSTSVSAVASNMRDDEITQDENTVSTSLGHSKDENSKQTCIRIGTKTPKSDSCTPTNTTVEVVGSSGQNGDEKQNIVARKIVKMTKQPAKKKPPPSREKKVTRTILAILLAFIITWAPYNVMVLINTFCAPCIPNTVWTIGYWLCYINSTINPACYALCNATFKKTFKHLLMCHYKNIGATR
Assay: Muscarinic M2 receptor binding (lymphocyte suspension)
Conditions: lymphocyte suspension and sections
pKi: −log10 of the molar value.
reported-endpoint: pKi

Here CN(C)CCC(Oc1cccc2c1OCO2)c1ccc(OCCCN2CCCCC2)cc1.O=C(O)C(=O)O (stereo not shown) [Compound 11b] was tested on M2 muscarinic receptor (Homo sapiens), and its pKi came to < 6.00

---

Experiment: Pharmacokinetic study in rats
Type: in vivo
Conditions: rat, plasma, 2 mg/kg iv
reported-endpoint: MRT last (h)
Give a bare numeral; the unit h is implied.

Measured MRT last, CN(C)CCC(Oc1cccc2c1OCO2)c1ccc(OCCCN2CCCCC2)cc1.O=C(O)C(=O)O (stereo not shown) [Compound 11b] : 1.2

---

Molecular target: SERT (Rattus norvegicus, UniProt P31652)
Construct: [3H]-paroxetine, rat cerebral cortex; from tissue; host or cells: rat cerebral cortex (membranes / crude synaptosomes)
Sequence (P31652 whole entry): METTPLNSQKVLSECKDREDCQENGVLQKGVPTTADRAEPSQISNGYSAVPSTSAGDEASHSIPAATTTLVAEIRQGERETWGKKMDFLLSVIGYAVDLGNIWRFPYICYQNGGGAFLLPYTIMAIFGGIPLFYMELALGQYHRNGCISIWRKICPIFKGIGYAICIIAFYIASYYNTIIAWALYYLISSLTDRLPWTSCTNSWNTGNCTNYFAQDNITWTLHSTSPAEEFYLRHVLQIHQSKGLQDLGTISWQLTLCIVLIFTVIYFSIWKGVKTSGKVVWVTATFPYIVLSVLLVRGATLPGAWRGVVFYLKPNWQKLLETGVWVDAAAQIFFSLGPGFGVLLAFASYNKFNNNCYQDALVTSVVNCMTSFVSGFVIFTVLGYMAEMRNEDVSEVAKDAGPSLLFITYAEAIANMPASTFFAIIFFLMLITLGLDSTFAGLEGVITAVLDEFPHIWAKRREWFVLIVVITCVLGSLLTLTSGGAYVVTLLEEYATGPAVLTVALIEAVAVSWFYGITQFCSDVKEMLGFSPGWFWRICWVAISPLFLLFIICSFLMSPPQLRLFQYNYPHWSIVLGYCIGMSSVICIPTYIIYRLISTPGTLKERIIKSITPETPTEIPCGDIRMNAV
Assay: biochemical
Type: binding
Conditions: Receptor Affinity Ki ± SEM SERT
pKi: −log10 of the molar value.
reported-endpoint: pKi

Measured pKi, Clc1ccc(CCCOCCCN2CCCCC2)cc1 [Pitolisant, reference compound] : < 6.00

---

Would you kindly list log10 Ki for each of these compounds?
Target: SERT (Rattus norvegicus)
Construct: [3H]-paroxetine, rat cerebral cortex; from tissue; host or cells: rat cerebral cortex (membranes / crude synaptosomes)
Test: biochemical
Type: binding
Conditions: rat cerebral cortex, [3H]-paroxetine; means ± SEM of three experiments; read-out: Receptor Affinity Ki ± SEM SERT
Hey, these are logged values: log10 of Ki, nM being the unit before logging.

Here CN(C)CCC(Oc1cccc2c1OCO2)c1ccc(OCCCN2CCOCC2)cc1.O=C(O)C(=O)O (stereo not shown) [Compound 11c] was tested on SERT (Rattus norvegicus), and its log10 Ki came to 1.64

Here CC1CCCN(CCCOc2ccc(C(CCN(C)C)Oc3cccc4c3OCO4)cc2)C1.O=C(O)C(=O)O (stereo not shown) [Compound 11q] was tested on SERT (Rattus norvegicus), and its log10 Ki came to 1.08

Here CN(C)CCC(Oc1cccc2c1OCO2)c1ccc(OCCCCN2CCCCC2)cc1.O=C(O)C(=O)O (stereo not shown) [Compound 11o] was tested on SERT (Rattus norvegicus), and its log10 Ki came to 1.69

Here CN(C)CCC(Oc1cccc2c1OCO2)c1ccc(OCCCN2CCC(Cl)CC2)cc1.O=C(O)C(=O)O (stereo not shown) [Compound 11u] was tested on SERT (Rattus norvegicus), and its log10 Ki came to 1.60

Here CN(C)CCC(Oc1cccc2c1OCO2)c1ccc(OCCCN2CC3CCCC3C2)cc1.O=C(O)C(=O)O (stereo not shown) [Compound 11g] was tested on SERT (Rattus norvegicus), and its log10 Ki came to 1.50

Here CN(C)CCC(Oc1cccc2c1OCO2)c1ccc(OCCCN2CCCC2)cc1.O=C(O)C(=O)O (stereo not shown) [Compound 11a] was tested on SERT (Rattus norvegicus), and its log10 Ki came to 1.01

Here CN(C)CCC(Oc1cccc2c1OCO2)c1ccc(OCCCN2CCC(C#N)CC2)cc1.O=C(O)C(=O)O (stereo not shown) [Compound 11v] was tested on SERT (Rattus norvegicus), and its log10 Ki came to 1.78

Here CN(C)CCC(Oc1cccc2c1OCO2)c1cccc(OCCCN2CCCC2)c1.O=C(O)C(=O)O (stereo not shown) [Compound 11h] was tested on SERT (Rattus norvegicus), and its log10 Ki came to 2.28

Here CN(C)CCC(Oc1cccc2c1OCO2)c1ccc(OCCCN2CCN(C)CC2)cc1.O=C(O)C(=O)O (stereo not shown) [Compound 11d] was tested on SERT (Rattus norvegicus), and its log10 Ki came to 1.72

Here CN(C)CCCOc1ccc(C(CCN(C)C)Oc2cccc3c2OCO3)cc1.O=C(O)C(=O)O (stereo not shown) [Compound 11l] was tested on SERT (Rattus norvegicus), and its log10 Ki came to 1.23

Here CN(C)CCC(Oc1cccc2c1OCO2)c1ccc(OCCCN2CCC(F)CC2)cc1.O=C(O)C(=O)O (stereo not shown) [Compound 11t] was tested on SERT (Rattus norvegicus), and its log10 Ki came to 1.53

Here CN(C)CCC(Oc1cccc2c1OCO2)c1ccc(OCCN2CCCCC2)cc1.O=C(O)C(=O)O (stereo not shown) [Compound 11n] was tested on SERT (Rattus norvegicus), and its log10 Ki came to 1.42

Here CC1CCCCN1CCCOc1ccc(C(CCN(C)C)Oc2cccc3c2OCO3)cc1.O=C(O)C(=O)O (stereo not shown) [Compound 11p] was tested on SERT (Rattus norvegicus), and its log10 Ki came to 1.31

Here CC1CCN(CCCOc2ccc(C(CCN(C)C)Oc3cccc4c3OCO4)cc2)CC1.O=C(O)C(=O)O (stereo not shown) [Compound 11r] was tested on SERT (Rattus norvegicus), and its log10 Ki came to 1.43

Here CN(C)CCC(Oc1cccc2c1OCO2)c1cccc(OCCCN2CCOCC2)c1.O=C(O)C(=O)O (stereo not shown) [Compound 11j] was tested on SERT (Rattus norvegicus), and its log10 Ki came to 2.67

Here CC(C)N1CCN(CCCOc2cccc(C(CCN(C)C)Oc3cccc4c3OCO4)c2)CC1.O=C(O)C(=O)O (stereo not shown) [Compound 11k] was tested on SERT (Rattus norvegicus), and its log10 Ki came to 2.21

Here CC1CC(C)CN(CCCOc2ccc(C(CCN(C)C)Oc3cccc4c3OCO4)cc2)C1.O=C(O)C(=O)O (stereo not shown) [Compound 11s] was tested on SERT (Rattus norvegicus), and its log10 Ki came to 1.48

Here CC(C)N1CCN(CCCOc2ccc(C(CCN(C)C)Oc3cccc4c3OCO4)cc2)CC1.O=C(O)C(=O)O (stereo not shown) [Compound 11f] was tested on SERT (Rattus norvegicus), and its log10 Ki came to 1.55

Here CN(C)CCC(Oc1cccc2c1OCO2)c1ccc(OCCCN2CCCCC2)cc1.O=C(O)C(=O)O (stereo not shown) [Compound 11b] was tested on SERT (Rattus norvegicus), and its log10 Ki came to 0.89

Here CCN1CCN(CCCOc2ccc(C(CCN(C)C)Oc3cccc4c3OCO4)cc2)CC1.O=C(O)C(=O)O (stereo not shown) [Compound 11e] was tested on SERT (Rattus norvegicus), and its log10 Ki came to 1.60

Here CCN(CC)CCCOc1ccc(C(CCN(C)C)Oc2cccc3c2OCO3)cc1.O=C(O)C(=O)O (stereo not shown) [Compound 11m] was tested on SERT (Rattus norvegicus), and its log10 Ki came to 1.45

Here CN(C)CCC(Oc1cccc2c1OCO2)c1cccc(OCCCN2CCCCC2)c1.O=C(O)C(=O)O (stereo not shown) [Compound 11i] was tested on SERT (Rattus norvegicus), and its log10 Ki came to 2.37
